# study-target: Follistatin (Homo sapiens) (UniProt P19883)
# Sequence (P19883 whole entry, looked up): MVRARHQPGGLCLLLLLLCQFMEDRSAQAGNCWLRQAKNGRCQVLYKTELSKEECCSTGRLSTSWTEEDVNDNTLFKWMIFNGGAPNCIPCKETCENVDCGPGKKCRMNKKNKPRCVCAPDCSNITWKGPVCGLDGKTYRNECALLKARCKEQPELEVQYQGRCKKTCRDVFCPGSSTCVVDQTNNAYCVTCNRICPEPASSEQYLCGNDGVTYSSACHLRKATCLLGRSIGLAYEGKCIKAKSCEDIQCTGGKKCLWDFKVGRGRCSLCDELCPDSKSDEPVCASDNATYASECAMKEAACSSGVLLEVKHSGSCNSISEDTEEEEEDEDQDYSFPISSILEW
# assay-details: follistatin binders on small-molecule microarrays, primary screen, biochemical, small-molecule microarray, 635/667 nm fluorescence (AID 1132)
# measurement-context: FST binding, 635 nm fluorescence, higher = more signal
Rule: composite z-score under 0.3 gives class 0, otherwise class 1.

compound	label
COCCOC(=O)N1C(=O)[C@@]2(c3cc(C#CC4=CCCCC4)ccc31)[C@H](C(=O)NC[C@H](O)c1ccccc1)[C@H]1C(=O)O[C@H](c3ccccc3)[C@H](c3ccccc3)N1[C@@H]2c1ccc(OCCO)cc1	class 1
CO[C@H]1COC(=O)[C@@H](OCc2ccccc2)C=C[C@H](C)[C@@H](OC)COC(=O)[C@H](OCc2ccccc2)C=C[C@@H]1C	class 0
O=C1C2C=CC(C(O)c3ccccc3)N(n3cnnc3)C2C(=O)N1Cc1ccccc1 (centres undefined)	class 1
O=C1OCCC=C[C@H]2OC34C=CCN(Cc5ccccc5)C(=O)[C@H]3N(CCO)C(=O)[C@@H]4C12 (some centres undefined)	class 0
C=C(C)[C@@H]1CC=C(C(O)C2C=CC3C(=O)NC(=O)C3N2Nc2ccccn2)CC1 (some centres undefined)	class 1
CCCN1C(=O)[C@@]2(CCS(=O)(=O)c3ccccc3)N=C(c3ccc(OCCCO)cc3)O[C@H]2c2ccccc21	class 1
C#CCCCON=C1C[C@@H](O)[C@@H](O)[C@@H]2[C@@H]3C(=O)N(Cc4ccc5c(c4)OCO5)C(=O)[C@@H]3CC[C@@H]12	class 1
C=CCNC(=O)[C@H]1[C@@H]2C(=O)O[C@@H](c3ccccc3)[C@@H](c3ccccc3)N2[C@@H](c2ccccc2OCCO)[C@]12C(=O)N(C(=O)OCCOC)c1ccc(C#CCC(C(=O)OC)C(=O)OC)cc12	class 1
[N-]=[N+]=NCc1ccccc1C[C@@]1(C(=O)N2CCOCC2)N=C(c2ccc(OCCCO)cc2)O[C@@H]1c1ccccc1N=[N+]=[N-]	class 1
CN1CCC(CCCO)=CC1C1CC1 (centres undefined)	class 1
CO[C@]12C=C(Br)[C@@H](C[C@@H]1c1ccccc1)[C@@]1(CO1)C2=O	class 1
CC(C)C[C@@H]1NC(=O)[C@H](CC(C)C)NC(=O)[C@@]23C(=O)N[C@@H](Cc4ccccc4)C2[C@H](C)[C@@]2(C)O[C@H]2C3/C=C/CC/C=C/CNC1=O (some centres undefined)	class 1
COC(=O)c1ccc(C#CC(NP(=O)(c2ccccc2)c2ccccc2)c2ccccc2)cc1 (centres undefined)	class 1
C=CCNC(=O)[C@H]1[C@@H]2C(=O)O[C@@H](c3ccccc3)[C@@H](c3ccccc3)N2[C@@H](c2ccccc2OCCO)[C@]12C(=O)N(C(=O)OCCOC)c1ccc(C#CCNC(N)=O)cc12	class 1
CCCCCCc1nc(-c2cc(C)c(OC)c(C)c2)cc2c1[Si](C(C)C)(C(C)C)O[C@H]2c1ccccc1	class 0
CN(C)CCCC[C@@H]1NC(=O)[C@@H]2C[C@H](C(=O)NCCCCCNC(=O)CS)[C@H](c3ccc(O)cc3)N2C1=O	class 1
Cc1ccc(S[C@]2(C(=O)NCCCN(C)C)CC(=O)N(Cc3ccccc3)[C@@H]2c2ccc(CO)cc2I)cc1	class 0
COCC(=C=CC[C@H](O)c1ccc(OCCO)cc1)C[C@H](O)c1ccccn1	class 0
COc1ccc([Si](C)(C)[C@@H]2[C@@H](CCO)O[C@]3(C(=O)N(Cc4ccccc4)c4ccccc43)[C@H]2C)cc1	class 1
O=C(CS)NCCCCCCNC(=O)[C@@H]1C[C@@H]2C(=O)N[C@@H](Cc3ccccc3)C(=O)N2[C@@H]1c1ccc(O)cc1	class 1
COc1cc(Cc2cc3c(c(CCc4ccccc4)n2)[Si](C(C)C)(C(C)C)OC3)cc(OC)c1OC	class 1
O=C(N1CCCCC1)[C@@]1(CCS(=O)(=O)c2ccccc2)N=C(c2ccc(OCCCO)cc2)O[C@H]1c1ccccc1	class 1
NC(=O)[C@H]1[C@@H]2C(=O)O[C@@H](c3ccccc3)[C@@H](c3ccccc3)N2[C@@H](c2ccc(O)cc2)[C@]12C(=O)Nc1ccc(C#CCCO)cc12	class 0
CC(C)CNC(=O)[C@@]1(C)c2ccccc2C(=O)N(Cc2ccc(OC(F)(F)F)cc2)[C@H]1c1ccc(CO)cc1	class 0
CCC1=C2CN(Cc3ccccc3Br)[C@@H]([C@@H](O)Cc3ccccc3)C2C=CCC1 (some centres undefined)	class 1
Cc1ccc(N2C(=O)c3ccccc3[C@@H](C(=O)NCC(F)(F)F)[C@@H]2c2ccc(CO)cc2)nc1	class 0
COCCOC(=O)N1C(=O)[C@@]2(c3cc(C#CCC(C(=O)OC)C(=O)OC)ccc31)[C@H](C(=O)N1CCN(c3ncccn3)CC1)[C@H]1C(=O)O[C@H](c3ccccc3)[C@H](c3ccccc3)N1[C@@H]2c1ccc(O)cc1	class 1
O=[N+]([O-])c1ccc(C[n+]2ccc3ccc(O)cc3c2)o1	class 1
COC(=O)C[C@H]1O[C@]2(C(=O)N(Cc3ccccc3)c3ccc(I)cc32)[C@@H](C)[C@@H]1[Si](C)(C)c1ccc(OC)cc1	class 0
